Test system: rat central imidazoline I2 receptor
ASSAY_PROTOCOL: Central imidazoline I2 radioligand binding ([3H]Idazoxan)
Classification field: Met = Imidazoline I2 Central (1 μM), percent inhibition of specific binding at or over 50%; Not met = Imidazoline I2 Central (1 μM), percent inhibition of specific binding under 50%.

Can C/C(=C\n1c2c(c3cc(Cl)ccc31)CN(C)CC2)c1ccc(F)cc1 be said to have Imidazoline I2 Central (1 μM), percent inhibition of specific binding at or above 50%?
Met

Quick check: does CCN1CCc2c(c3ccccc3n2CC(O)c2ccc(C)cc2)C1 (racemic) have Imidazoline I2 Central (1 μM), percent inhibition of specific binding greater than or equal to 50%?
Not met

* * *

ASSAY_SYSTEM: human dopamine D2L receptor (Homo sapiens, UniProt P14416)
Sequence (P14416 whole entry): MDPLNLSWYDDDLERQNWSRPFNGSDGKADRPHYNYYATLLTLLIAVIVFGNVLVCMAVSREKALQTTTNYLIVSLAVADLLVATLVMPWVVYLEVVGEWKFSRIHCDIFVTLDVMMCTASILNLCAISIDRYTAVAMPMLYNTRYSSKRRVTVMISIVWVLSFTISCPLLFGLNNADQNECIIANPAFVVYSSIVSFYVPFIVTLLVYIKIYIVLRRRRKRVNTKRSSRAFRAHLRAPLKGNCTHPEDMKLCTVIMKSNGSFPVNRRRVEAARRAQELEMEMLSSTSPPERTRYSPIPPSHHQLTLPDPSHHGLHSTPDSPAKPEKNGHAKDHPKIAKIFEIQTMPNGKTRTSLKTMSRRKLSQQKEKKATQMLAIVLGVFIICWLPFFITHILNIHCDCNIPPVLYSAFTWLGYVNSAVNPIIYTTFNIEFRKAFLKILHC
ASSAY_PROTOCOL: Dopamine D2L radioligand binding ([3H]Spiperone)
CONDITION_SUMMARY: percent inhibition of specific binding; compound at 1 μM; read-out: Inhibition of ligand binding, Dopamine D2L
Please use Met whenever inhibition at 1 µM is not below 50%, and Not met whenever it is.

Form field: inhibition at 1 µM at least 50%? Entry: Cc1ccc2c(c1)c1c(n2/C=C/c2ccc(C)nc2)CCN(C)C1
Not met

* * *

ASSAY_SYSTEM: histamine receptor H1 (Homo sapiens)
Sequence (P35367 whole entry): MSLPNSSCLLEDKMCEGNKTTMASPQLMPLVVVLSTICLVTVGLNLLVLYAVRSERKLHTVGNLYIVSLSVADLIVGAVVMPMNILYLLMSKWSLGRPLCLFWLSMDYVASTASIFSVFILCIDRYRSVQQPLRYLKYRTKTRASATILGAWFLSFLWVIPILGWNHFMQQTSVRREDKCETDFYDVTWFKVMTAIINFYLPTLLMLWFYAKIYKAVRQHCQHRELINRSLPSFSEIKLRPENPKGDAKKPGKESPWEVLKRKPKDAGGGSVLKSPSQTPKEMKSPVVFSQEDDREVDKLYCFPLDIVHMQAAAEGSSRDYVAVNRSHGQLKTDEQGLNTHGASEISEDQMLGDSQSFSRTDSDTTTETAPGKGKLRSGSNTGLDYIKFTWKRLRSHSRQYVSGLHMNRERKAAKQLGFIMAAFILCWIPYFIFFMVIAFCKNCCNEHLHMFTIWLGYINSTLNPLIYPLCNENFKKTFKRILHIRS
ASSAY_PROTOCOL: Histamine H1 radioligand binding ([3H]Pyrilamine)
CONDITION_SUMMARY: read-out: Histamine Binding (1 μM) H1, percent inhibition of specific binding, 1 μM
Where inhibition at 1 µM equals or exceeds 20%, the correct label is YES; where it does not, the label is NO.

Worked examples, 6 molecules total:
[[record]]
molecule = "CN1CCc2c(c3cc(Cl)ccc3n2/C=C(\\c2ccc(F)cc2)C2CC2)C1"
label = "YES"

[[record]]
molecule = "C/C(=C\\n1c2c(c3cc(C)ccc31)C(C)N(C)C(C)C2)c1ccncc1 (centres unmarked)"
label = "YES"

[[record]]
molecule = "CCC(O)(Cn1c2c(c3cc(C)ccc31)CN(C)CC2)c1ccncc1 (centres unmarked)"
label = "NO"

[[record]]
molecule = "CN1CCc2c(c3cc(Cl)ccc3n2/C=C(\\c2ccccc2)c2ccncc2)C1"
label = "NO"

[[record]]
molecule = "C/C(=C\\n1c2c(c3cccc(Cl)c31)CN(C)CC2)c1ccc(C)nc1"
label = "YES"

[[record]]
molecule = "C/C(=C\\n1c2c(c3cc(C)ccc31)CN(C=O)CC2)c1ccncc1"
label = "NO"


Record C/C(=C/n1c2c(c3cc(C)ccc31)CN(C)CC2)c1ccc(F)cc1F ; criterion: inhibition at 1 µM no lower than 20%. Met?
YES

Exam item: decide whether the reported inhibition at 1 µM for COc1ccc2c(c1)c1c(n2/C=C(/C)c2ccncc2)CCN(C)C1 is at least 20%.
NO

Form field: inhibition at 1 µM at least 20%? Entry: COc1ccc(/C(C)=C/n2c3c(c4cc(Cl)ccc42)CN(C)CC3)cc1
YES

Hi, just wondering whether CN1CCc2c(c3cc(F)ccc3n2CC(C)(O)c2ccncc2)C1 (centres unmarked) shows inhibition at 1 µM of 20% or higher.
NO

Could you tell me if the measured inhibition at 1 µM of C/C=C(/Cn1c2c(c3cc(Cl)ccc31)CN(C)CC2)c1ccncc1 reaches 20% or more?
YES
